Test Method Notes: Stability assay in 25% TIDE 2X detergent without DTPA (residual Abz-AGLA-Nba protease activity)
Format: physicochemical
Condition Details: 180 min at 50°C; variant residual AGLA activity divided by wild-type residual activity
Test Readout: PI (relative stability), 25% TIDE 2X without DTPA
Answer with a bare number; do not write a unit.

>  <Molecule>
Q128Y: single-substitution thermolysin variant (SEQ ID NO:3 numbering) (protein, listed as Geobacillus caldoproteolyticus) ITGTSTVGVGRGVLGDQKNINTTYSTYYYLQDNTRGNGIFTYDAKYRTTLPGSLWADADNQFFASYDAPAVDAHYYAGVTYDYYKNVHNRLSYDGNNAAIRSSVHYSQGYNNAFWNGSQMVYGDGDGYTFIPLSGGIDVVAHELTHAVTDYTAGLIYQNESGAINEAISDIFGTLVEFYANKNPDWEIGEDVYTPGISGDSLRSMSDPAKYGDPDHYSKRYTGTQDNGGVHINSGIINKAAYLISQGGTHYGVSVVGIGRDKLGKIFYRALTQYLTPTSNFSQLRAAAVQSATDLYGSTSQEVASVKQAFDAVGVK

>  <Result>
1.05

$$$$

For the molecule shown here, T049S: single-substitution thermolysin variant (SEQ ID NO:3 numbering) (protein, listed as Geobacillus caldoproteolyticus) ITGTSTVGVGRGVLGDQKNINTTYSTYYYLQDNTRGNGIFTYDAKYRTSLPGSLWADADNQFFASYDAPAVDAHYYAGVTYDYYKNVHNRLSYDGNNAAIRSSVHYSQGYNNAFWNGSQMVYGDGDGQTFIPLSGGIDVVAHELTHAVTDYTAGLIYQNESGAINEAISDIFGTLVEFYANKNPDWEIGEDVYTPGISGDSLRSMSDPAKYGDPDHYSKRYTGTQDNGGVHINSGIINKAAYLISQGGTHYGVSVVGIGRDKLGKIFYRALTQYLTPTSNFSQLRAAAVQSATDLYGSTSQEVASVKQAFDAVGVK , give the reported PI (relative stability), 25% TIDE 2X without DTPA.
1.26

Moving on to T006C: single-substitution thermolysin variant (SEQ ID NO:3 numbering) (protein, listed as Geobacillus caldoproteolyticus) ITGTSCVGVGRGVLGDQKNINTTYSTYYYLQDNTRGNGIFTYDAKYRTTLPGSLWADADNQFFASYDAPAVDAHYYAGVTYDYYKNVHNRLSYDGNNAAIRSSVHYSQGYNNAFWNGSQMVYGDGDGQTFIPLSGGIDVVAHELTHAVTDYTAGLIYQNESGAINEAISDIFGTLVEFYANKNPDWEIGEDVYTPGISGDSLRSMSDPAKYGDPDHYSKRYTGTQDNGGVHINSGIINKAAYLISQGGTHYGVSVVGIGRDKLGKIFYRALTQYLTPTSNFSQLRAAAVQSATDLYGSTSQEVASVKQAFDAVGVK
1.07

Entry source: patent US9976134B2
